- Tested on: synthesis of LTB4 in human whole blood
- method summary: Human whole blood LTB4 production inhibition assay
- Format: cell-based
- measurement context: calcimycin stimulated, read-out: hWB LTB4 IC50
Criterion: IC50 strictly under 600 nM. Met: 1 (yes). Not met: 0 (no).

Example cases with answers are listed next.
Nc1cnc(-c2ccc(C3(c4noc(-c5cnn(C6COC6)c5)n4)CCC3)cn2)cn1 [Example 145] = 1 (yes)
Nc1ncc(-c2ccc(C3(c4noc(-c5cc(N)[nH]n5)n4)CCC3)cn2)cn1 [Example 10] = 0 (no)
CNc1cnc(-c2ccc(C3(c4noc(-c5cnn(CC#N)c5)n4)CCC3)cn2)cn1 [Example 173] = 1 (yes)
CC(C)(C#N)Cn1cc(-c2nc(C3(c4ccc(-c5cnc(N)nc5)nc4)CCC3)no2)cn1 [Example 148] = 1 (yes)
Cc1cccc(-c2nc(C3(c4ccc(-c5cnc(N)nc5)nc4)CCC3)no2)c1 [Example 5] = 0 (no)

IC50 strictly < 600 nM for this compound? CCn1cc(-c2nc(C3(c4ccc(-c5cnc(N)nc5)nc4)CCC3)no2)cn1 [Example 63]
1 (yes)

IC50 strictly < 600 nM for this compound? Cn1cc(-c2nc(C3(c4ccc(-c5cnc(N)nc5)nc4)CCC3)no2)ccc1=O [Example 26]
0 (no)

---

- Tested on: synthesis of LTB4 in human whole blood
- method summary: Human whole blood LTB4 production inhibition assay
- Format: cell-based
- measurement context: calcimycin stimulated, read-out: hWB LTB4 IC50
Criterion: IC50 strictly under 200 nM. Met: MET. Not met: NOT MET.

Nc1ncc(-c2ccc(C3(c4noc(-c5ccc(N6CCC[C@H]6C(=O)O)nc5)n4)CCC3)cn2)cn1 [Example 35] = NOT MET
Cc1cc(-c2nc(C3(c4ccc(-c5cnc(N)nc5)nc4)CCC3)no2)ccn1 [Example 101] = NOT MET
Nc1ncc(-c2ccc(C3(c4noc(-c5ccc6[nH]ncc6c5)n4)CCC3)cn2)cn1 [Example 79] = MET
CC(C)Nc1ccc(-c2nc(C3(c4ccc(-c5cnc(N)nc5)nc4)CCC3)no2)cn1 [Example 114] = NOT MET
CC(C)(O)Cn1cc(-c2nc(C3(c4ccc(-c5cnc(N)nc5)nc4)CCC3)no2)cn1 [Example 54] = MET

IC50 strictly < 200 nM for this compound? Nc1ncc(-c2ccc(C3(c4noc(-c5cccnc5Cl)n4)CCC3)cn2)cn1 [Example 84]
NOT MET

IC50 strictly < 200 nM for this compound? Cc1nc(N)ncc1-c1ccc(C2(c3noc(-c4cnn(CC(C)(C)O)c4)n3)CCC2)cn1 [Example 175]
NOT MET

IC50 strictly < 200 nM for this compound? Nc1ncc(-c2ccc(C3(c4noc(-c5ccc(OCCO)nc5)n4)CCC3)cn2)cn1 [Example 22]
MET

IC50 strictly < 200 nM for this compound? Nc1ncc(-c2ccc(C3(c4noc(-c5cccnc5N)n4)CCC3)cn2)cn1 [Example 105]
NOT MET

IC50 strictly < 200 nM for this compound? CC(C)n1cc(-c2nc(C3(c4ccc(-c5cnc(N)nc5)nc4)CCC3)no2)cn1 [Example 64]
MET

---

- Test system: synthesis of LTB4 in human whole blood
- method summary: Human whole blood LTB4 production inhibition assay
- Assay type: cell-based
- measurement context: calcimycin stimulated, read-out: hWB LTB4 IC50
Criterion: IC50 strictly under 600 nM. Met: condition met. Not met: condition not met.

Example cases with answers are listed next.
Nc1ncc(-c2ccc(C3(c4noc(-c5cnn(CCN6CCOCC6)c5)n4)CCC3)cn2)cn1 = condition met
CC(C)(Cn1cc(-c2nc(C3(c4ccc(-c5cnc(N)nc5)nc4)CCC3)no2)cn1)C(N)=O = condition met
Nc1ncc(-c2ccc(C3(c4noc(-c5ccncn5)n4)CCC3)cn2)cn1 = condition not met
Nc1ncc(-c2ccc(C3(c4noc(N5CCCC5)n4)CCC3)cn2)cn1 = condition not met
CC(C)(C#N)n1cc(-c2nc(C3(c4ccc(-c5cnc(N)nc5)nc4)CCC3)no2)cn1 = condition met

Please find the next molecule below.
IC50 strictly < 600 nM for this molecule? `Nc1ccc(-c2ccc(C3(c4noc(-c5cnn(C6COC6)c5)n4)CCC3)cn2)cn1`
condition met

---

The entries below are paired with their reported IC50.
- subject of test: recombinant human FLAP protein (Homo sapiens (Human))
- method summary: FLAP binding assay (Scintillation Proximity Assay, displacement of [125I]L-691,831)
- measurement context: read-out: FLAP SPA IC50
Write the number in nM without appending the unit.

Nc1ncc(-c2ccc(C3(c4noc(-c5ccc(N6CCN[C@@H](C(=O)O)C6)nc5)n4)CCC3)cn2)cn1 [Example 42] = 7.7
Nc1ncc(-c2ccc(C3(c4noc(-c5cnn(CCN6CCOCC6)c5)n4)CCC3)cn2)cn1 [Example 140] = 15

Now, please, on to the next compound.
Fill in the blank: the reported IC50 of Nc1ncc(-c2ccc(C3(c4noc(-c5cnn(CC(F)F)c5)n4)CCC3)cn2)cn1 [Example 68] is ____.
6.1

---

- Test system: synthesis of LTB4 in human whole blood
- method summary: Human whole blood LTB4 production inhibition assay
- Format: cell-based
- measurement context: calcimycin stimulated, read-out: hWB LTB4 IC50
endpoint: IC50

# example entries with known answers
CNc1cnc(-c2ccc(C3(c4noc(-c5cnn(C6COC6)c5)n4)CCC3)cn2)cn1 = 73 nM
Nc1ncc(-c2ccc(C3(c4noc(-c5ccc(NCCO)nc5)n4)CCC3)cn2)cn1 = 49 nM
Nc1ncc(-c2ccc(C3(c4noc(-c5ccc(N6CCNC(=O)C6)nc5)n4)CCC3)cn2)cn1 = 160 nM
CN1CCN(c2cnc(-c3nc(C4(c5ccc(-c6cnc(N)nc6)nc5)CCC4)no3)cn2)CC1 = 41 nM
Nc1ncc(-c2ccc(C3(c4noc(-c5cnn(CCF)c5)n4)CCC3)cn2)cn1 = 69 nM
Cc1cc(-c2nc(C3(c4ccc(-c5cnc(N)nc5)nc4)CCC3)no2)n(C)n1 = 1800 nM

Fill in the blank: the reported IC50 of `Nc1ncc(-c2ccc(C3(c4noc(-c5ccc(N6CCN[C@H](C(=O)O)C6)nc5)n4)CCC3)cn2)cn1` is ____.
> 5000 nM

Fill in the blank: the reported IC50 of CC(CO)n1cc(-c2nc(C3(c4ccc(-c5cnc(N)nc5)nc4)CCC3)no2)cn1 (stereo not shown) is ____.
320 nM

Fill in the blank: the reported IC50 of `Nc1ncc(-c2ccc(C3(c4noc(-c5ccc(NC6CC6)nc5)n4)CCC3)cn2)cn1` is ____.
320 nM

Fill in the blank: the reported IC50 of `Cc1nc(N)cnc1-c1ccc(C2(c3noc(-c4cnn(CC(C)(C)O)c4)n3)CCC2)cn1` is ____.
51 nM

Fill in the blank: the reported IC50 of `Nc1ncc(-c2ccc(C3(c4noc(-c5ccc(N6CCNCC6)nc5)n4)CCC3)cn2)cn1` is ____.
150 nM

Fill in the blank: the reported IC50 of `Nc1ncc(-c2ccc(C3(c4noc(-c5cccnc5N5CCOCC5)n4)CCC3)cn2)cn1` is ____.
2700 nM

Fill in the blank: the reported IC50 of `Nc1ncc(-c2ccc(C3(c4noc(-c5ccc(N6CCN(CCC(=O)O)CC6)nc5)n4)CCC3)cn2)cn1` is ____.
2600 nM

Fill in the blank: the reported IC50 of `Cc1ccc(-c2nc(C3(c4ccc(-c5cnc(N)nc5)nc4)CCC3)no2)cc1` is ____.
830 nM

Fill in the blank: the reported IC50 of `Nc1ncc(-c2ccc(C3(c4noc(-c5ccc(O)cc5)n4)CCC3)cn2)cn1` is ____.
140 nM

Fill in the blank: the reported IC50 of `CCNc1ccc(-c2nc(C3(c4ccc(-c5cnc(N)nc5)nc4)CCC3)no2)cn1` is ____.
110 nM

Fill in the blank: the reported IC50 of `Cc1cnc(-c2nc(C3(c4ccc(-c5cnc(N)nc5)nc4)CCC3)no2)cn1` is ____.
350 nM

Fill in the blank: the reported IC50 of `Nc1ncc(-c2ccc(C3(c4noc(-c5c[nH]nn5)n4)CCC3)cn2)cn1` is ____.
> 5000 nM

---

- subject of test: recombinant human FLAP protein (Homo sapiens (Human), UniProt P20292)
- Sequence (P20292 whole entry): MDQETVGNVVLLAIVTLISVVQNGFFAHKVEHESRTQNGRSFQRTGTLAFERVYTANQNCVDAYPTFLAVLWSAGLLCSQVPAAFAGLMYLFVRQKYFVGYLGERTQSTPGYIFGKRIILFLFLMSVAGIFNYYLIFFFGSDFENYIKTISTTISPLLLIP
- method summary: FLAP binding assay (Scintillation Proximity Assay, displacement of [125I]L-691,831)
- measurement context: read-out: FLAP SPA IC50
endpoint: log10 of IC50 (log10 of the value in µM)
Scale: decimal log of IC50, IC50 in µM.

# example entries with known answers
Nc1ncc(-c2ccc(C3(c4noc(-c5cccnc5)n4)CCOCC3)cn2)cn1 = -0.21
Nc1ccc(-c2nc(C3(c4ccc(-c5cnc(N)nc5)nc4)CCC3)no2)cn1 = -2.38
CCOC(=O)CCN1CCN(c2ccc(-c3nc(C4(c5ccc(-c6cnc(N)nc6)nc5)CCC4)no3)cn2)CC1 = -2.47
Nc1ncc(-c2ccc(C3(c4noc(-c5cc[nH]n5)n4)CCC3)cn2)cn1 = -1.77
Cc1ccc(-c2nc(C3(c4ccc(-c5cnc(N)nc5)nc4)CCC3)no2)cc1 = -2.24

What log10 of IC50 appears in the records for this molecule with recombinant human FLAP protein (Homo sapiens (Human), UniProt P20292)? CC(CO)n1cc(-c2nc(C3(c4ccc(-c5cnc(N)nc5)nc4)CCC3)no2)cn1 (stereo not shown)
-1.46

What log10 of IC50 appears in the records for this molecule with recombinant human FLAP protein (Homo sapiens (Human), UniProt P20292)? `Nc1ncc(-c2ccc(C3(c4noc(-c5cnccc5O)n4)CCC3)cn2)cn1`
-0.72

What log10 of IC50 appears in the records for this molecule with recombinant human FLAP protein (Homo sapiens (Human), UniProt P20292)? `Cc1cc(-c2nc(C3(c4ccc(-c5cnc(N)nc5)nc4)CCC3)no2)n(C)n1`
-1.55

What log10 of IC50 appears in the records for this molecule with recombinant human FLAP protein (Homo sapiens (Human), UniProt P20292)? `CNc1cnc(-c2ccc(C3(c4noc(-c5cnn(CC(C)(C)O)c5)n4)CCC3)cn2)cn1`
-1.49
